Target: DNMT1 (Homo sapiens, UniProt P26358)
Sequence (P26358 whole entry): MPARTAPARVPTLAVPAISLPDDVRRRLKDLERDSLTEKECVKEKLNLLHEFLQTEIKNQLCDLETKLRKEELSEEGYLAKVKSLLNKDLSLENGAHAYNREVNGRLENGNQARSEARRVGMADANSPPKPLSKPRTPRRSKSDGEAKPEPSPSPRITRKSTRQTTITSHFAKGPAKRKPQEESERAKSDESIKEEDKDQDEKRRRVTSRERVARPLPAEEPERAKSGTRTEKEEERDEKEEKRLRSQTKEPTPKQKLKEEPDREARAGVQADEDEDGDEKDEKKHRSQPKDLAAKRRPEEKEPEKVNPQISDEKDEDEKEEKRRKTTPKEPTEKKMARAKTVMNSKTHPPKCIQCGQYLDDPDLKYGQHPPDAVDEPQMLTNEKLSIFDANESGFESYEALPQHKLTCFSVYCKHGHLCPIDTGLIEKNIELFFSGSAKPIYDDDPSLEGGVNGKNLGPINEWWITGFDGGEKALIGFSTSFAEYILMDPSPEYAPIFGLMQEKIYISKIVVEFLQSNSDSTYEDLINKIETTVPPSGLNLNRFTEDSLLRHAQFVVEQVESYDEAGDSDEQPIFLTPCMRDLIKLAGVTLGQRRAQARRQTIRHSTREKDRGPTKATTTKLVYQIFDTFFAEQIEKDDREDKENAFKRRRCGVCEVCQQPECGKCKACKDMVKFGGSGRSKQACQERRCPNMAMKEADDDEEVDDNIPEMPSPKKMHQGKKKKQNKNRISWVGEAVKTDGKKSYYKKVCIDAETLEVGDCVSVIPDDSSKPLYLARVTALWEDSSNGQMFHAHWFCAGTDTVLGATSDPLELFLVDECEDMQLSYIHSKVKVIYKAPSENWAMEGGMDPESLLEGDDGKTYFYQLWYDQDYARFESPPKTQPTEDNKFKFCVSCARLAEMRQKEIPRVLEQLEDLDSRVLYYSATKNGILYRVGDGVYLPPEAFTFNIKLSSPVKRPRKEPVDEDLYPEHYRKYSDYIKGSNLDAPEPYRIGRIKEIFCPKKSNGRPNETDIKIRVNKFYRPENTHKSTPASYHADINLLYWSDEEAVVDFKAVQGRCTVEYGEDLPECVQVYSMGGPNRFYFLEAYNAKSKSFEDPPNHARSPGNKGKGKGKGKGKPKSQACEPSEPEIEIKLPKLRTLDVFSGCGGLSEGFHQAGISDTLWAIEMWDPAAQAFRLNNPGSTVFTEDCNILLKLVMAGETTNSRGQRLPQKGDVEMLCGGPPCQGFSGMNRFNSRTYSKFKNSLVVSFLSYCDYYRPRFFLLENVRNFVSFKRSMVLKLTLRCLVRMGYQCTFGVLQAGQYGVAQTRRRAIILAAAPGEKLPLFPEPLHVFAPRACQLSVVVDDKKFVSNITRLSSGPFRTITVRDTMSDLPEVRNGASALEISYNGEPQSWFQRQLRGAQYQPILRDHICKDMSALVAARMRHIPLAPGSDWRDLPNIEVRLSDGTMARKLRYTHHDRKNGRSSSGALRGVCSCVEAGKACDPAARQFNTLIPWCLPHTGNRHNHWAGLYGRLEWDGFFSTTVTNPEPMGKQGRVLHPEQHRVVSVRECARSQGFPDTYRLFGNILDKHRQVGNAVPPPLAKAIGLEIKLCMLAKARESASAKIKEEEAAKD
Assay: Selective depletion of DNMT1 by Western blot in treated HCT116 cells
Type: cell-based
Set-up: Protein extracts (equivalent to 100 μg) were isolated from HCT116 cells; endogenous in cells; host or cells: HCT116
Conditions: HCT-116, 10 μM
Where a name gives a salt, the structure may show the parent alone.
In this section we review reported % DNMT1 protein level remaining at 10 µM values for a set of compounds.
Quick note: give the figure in %, leave out the unit.

Would you please look over these solved cases?
C[n+]1ccc(Nc2cccc(NC(=O)c3ccc(Nc4ccnc5ccc(N)cc45)cc3)c2)cc1
92
C/C(=N\N=C(N)N)c1ccc(C(=O)Nc2ccc(Nc3ccnc4ccc(N(C)C)cc34)cc2)cc1 [Cpd. PP, dihydrochloride]
70
Cc1cc(Nc2ccc(C(=O)Nc3ccc(Nc4ccnc5ccc([N+](=O)[O-])cc45)cc3)cc2)nc(N)n1 [Cpd. GG4, dihydrochloride]
90
C[n+]1ccc(Nc2cccc(NC(=O)c3ccc(Nc4ccnc5ccccc45)cc3)c2)cc1
117
Cc1cc(Nc2ccc(C(=O)Nc3ccc(Nc4ccnc5cc([N+](=O)[O-])ccc45)cc3)cc2)nc(N)n1 [Cpd. GG5, dihydrochloride]
90

# % DNMT1 protein level remaining at 10 µM of `C[n+]1ccc(Nc2cccc(NC(=O)c3ccc(Nc4ccnc5cc(N)ccc45)cc3)c2)cc1` = 110

# % DNMT1 protein level remaining at 10 µM of `C[n+]1ccc(Nc2cccc(NC(=O)c3ccc(Nc4ccnc5cc([N+](=O)[O-])ccc45)cc3)c2)cc1` = 170

###

Target: UniProt P26358
Assay: Selective depletion of DNMT1 by Western blot in treated HCT116 cells
Type: cell-based
Design: Protein extracts (equivalent to 100 μg) were isolated from HCT116 cells; endogenous in cells; host or cells: HCT116
Conditions: HCT-116, 10 μM
Where a name gives a salt, the structure may show the parent alone.
readout: % DNMT1 protein level remaining at 10 µM (%)
Quick note: give the figure in %, leave out the unit.

Would you please look over these solved cases?
Nc1cc(Nc2cccc(C(=O)Nc3ccc(Nc4ccnc5ccccc45)cc3)c2)nc(N)n1 [Cpd. FF2, dihydrochloride]
83
CN(C)c1ccc2nccc(Nc3ccc(C(=O)Nc4cccc(Nc5cc[n+](C)cc5)c4)cc3)c2c1
93
C[n+]1ccc(Nc2cccc(C(=O)Nc3ccc(Nc4ccnc5ccc([N+](=O)[O-])cc45)cc3)c2)cc1
89
Cc1cc(Nc2ccc(NC(=O)c3ccc(Nc4ccnc5c(F)c(F)c(F)cc45)cc3)cc2)nc(N)n1 [Cpd. KK, dihydrochloride]
20
Cc1cc(Nc2cccc(C(=O)Nc3ccc(Nc4ccnc5ccc(N(C)C)cc45)cc3)c2)nc(N)n1
10
C/C(=N\N=C(N)N)c1cccc(NC(=O)c2ccc(Nc3ccnc4ccc(N(C)C)cc34)cc2)c1 [Cpd. JJ1, dihydrochloride]
70

Next compound, please.
Record Cc1cc(Nc2cccc(C(=O)Nc3ccc(Nc4ccnc5ccccc45)cc3)c2)nc(N)n1 [Cpd. FF1, dihydrochloride] ; system UniProt P26358; % DNMT1 protein level remaining at 10 µM = 5

###

Structures can show the parent of a compound that is named as a salt.
readout: melting point

Would you please look over these solved cases?
CN(C)c1ccc2nccc(Nc3ccc(NC(=O)c4cccc(Nc5cc[n+](C)cc5)c4)cc3)c2c1
170 to 173 °C
C/C(=N\N=C(N)N)c1cccc(C(=O)Nc2ccc(Nc3ccnc4ccc(N(C)C)cc34)cc2)c1 (as salt: chloride)
> 280 °C

# melting point of C/C(=N\N=C(N)N)c1ccc(C(=O)Nc2ccc(Nc3ccnc4ccc(N(C)C)cc34)cc2)cc1 (as salt: hydrochloride) [Cpd. PP, dihydrochloride] = > 300 °C

Reference source: patent US7939546B2
